# target-entity: specific receptor on the membrane of human neutrophils (leukotriene B4) (Homo sapiens, UniProt Q15722)
# Construct: Freshly-prepared buffy coat layers from two individuals were obtained from a local blood donor center; endogenous in cells; host or cells: intact human peripheral blood neutrophils from buffy coats of two donors
# Sequence (Q15722 whole entry): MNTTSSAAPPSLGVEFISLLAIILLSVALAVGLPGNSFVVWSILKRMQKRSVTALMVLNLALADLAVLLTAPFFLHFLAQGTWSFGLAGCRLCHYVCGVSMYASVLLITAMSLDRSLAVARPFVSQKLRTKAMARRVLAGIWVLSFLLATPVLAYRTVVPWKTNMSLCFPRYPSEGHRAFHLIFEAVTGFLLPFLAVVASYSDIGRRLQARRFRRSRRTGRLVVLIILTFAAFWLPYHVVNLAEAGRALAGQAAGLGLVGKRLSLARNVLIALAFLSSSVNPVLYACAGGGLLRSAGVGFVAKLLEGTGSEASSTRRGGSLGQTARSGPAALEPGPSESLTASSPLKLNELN
# assay-notes: Inhibition of Binding of ^3 H-LTB4 to Peripheral Human Neutrophils
# stated-conditions: read-out: LTB4 Binding Inhibition
So I've got a bunch of molecules here, and I need their inhibition at 10 µM values.
Numbers only, in %.

For orientation, consider the following solved cases.
>>> measurement("COc1ccccc1CCCCCCOc1ccc(C(=O)c2cccc(C(=O)O)c2)cc1CCC(=O)O")
100
>>> measurement("CCCCCCCCCCOc1ccc(C(=NO)c2cccc(C(=O)O)c2)cc1CCC(=O)O")
92
>>> measurement("CCCCCCCCCCOc1ccc(C(=O)c2ccccc2CC(=O)O)cc1CCC(=O)O")
100
>>> measurement("O=C(O)CCc1cc(C(=O)c2cccc(C(=O)O)c2)ccc1OCCCCCCc1ccccc1")
97

// next entry
stdin: // inhibition at 10 µM lookup, key: COc1ccc(C=CCCCCOc2ccc(C(=O)c3cccc(C(=O)O)c3)cc2CCC(=O)O)cc1
stdout: 100

###

# target-entity: LTD4 receptors (Cavia porcellus)
# Construct: A section of terminal ileum was removed, the lumen cleaned, and the tissue divided into 2.5 cm segments; from tissue; host or cells: ileum and trachea of guinea pig (ileum: male Hartley)
# Sequence (Q2NNR5 1-340): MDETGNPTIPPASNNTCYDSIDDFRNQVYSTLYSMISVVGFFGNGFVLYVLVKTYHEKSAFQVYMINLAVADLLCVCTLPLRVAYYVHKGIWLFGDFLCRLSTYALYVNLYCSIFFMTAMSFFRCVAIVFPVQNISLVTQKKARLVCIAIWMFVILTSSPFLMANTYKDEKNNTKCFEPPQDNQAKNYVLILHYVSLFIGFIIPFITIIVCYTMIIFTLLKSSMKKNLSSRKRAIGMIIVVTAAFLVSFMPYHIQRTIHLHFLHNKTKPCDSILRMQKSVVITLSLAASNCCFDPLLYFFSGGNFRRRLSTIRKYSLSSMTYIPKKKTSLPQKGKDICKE
# assay-notes: Antagonism of LTD4 (guinea pig ileum and trachea, pA2)
# stated-conditions: *Estimated; negative log of KB; antagonist 30 minute incubation
Please go through the items and note down their Kb.
Give bare numbers, in nM.

>>> measurement("CCCCCCCCCCOc1ccc(C(=O)c2cccc(C(=O)O)c2)cc1CCc1nnn[nH]1")
324
>>> measurement("CCCCCCCCCCOc1ccc(C(=O)c2cccc(-c3nnn[nH]3)c2)cc1CCC(=O)O")
955
>>> measurement("CCCCCCCCCCOc1ccc(Oc2cccc(C(=O)O)c2)cc1CCC(=O)O")
479
>>> measurement("CCCCCCCCCCOc1ccc(C(=O)c2cccc(C(=O)O)c2)cc1CCC(=O)O")
1950
>>> measurement("CCCCCCCCCCOc1ccc(C(=O)c2cccc(C(=O)O)c2)cc1Cc1nnn[nH]1")
501

For the 3 molecules below, give their Kb values.
1. CCCCCCCCCCOc1ccc(C(=O)c2cccc(Cc3nnn[nH]3)c2)cc1CCC(=O)O
2. CCCCCCOc1ccc(C(O)c2cccc(C(=O)O)c2)cc1CC(=O)O (centres unmarked)
3. CCCCCCCCCCOc1ccc(C(=O)c2cccc(C(=O)OCC)c2)cc1CCCC(=O)OCC

stdout:
631
7940
158

Values compiled from patent US5171882A.
